Test: anti-His antibody binders, primary screen, artefact control for SMM control protein annotation, biochemical, small-molecule microarray, 635 nm fluorescence (AID 1128);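 also: score merges feature fluorescence with signal-to-noise for each printed compound spot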
Conditions: anti-His Alexa647 antibody binding, higher = more signal
# thresholds on composite z-score define classes: band 1: < 0.6; band 2: ≥ 0.6 and < 1; band 3: ≥ 1

Compound	Qualitative label
CN(C)c1ccc(C(O)C2C=CC3C(=O)N(c4ccccc4)C(=O)C3N2Nc2ccccc2F)cc1 (stereo not drawn)	band 3
CC(C)(C)OC(=O)CC[C@]1(C(N)=O)COC(c2ccc(OCCCO)cc2)=N1	band 3
CC(C)NC(=O)[C@@]1(c2ccc([N+](=O)[O-])cc2)CC(=O)N(CC23CC4CC(CC(C4)C2)C3)[C@@H]1c1ccc(CO)cc1I	band 1
CO[C@@H]1COC(=O)CC=C[C@@H](C)[C@@H]2C=C[C@H](O)[C@@H](COC(=O)[C@H](C)NC(=O)CC=C[C@H]1C)O2	band 3
COC(=O)CC=C[C@@H](C)[C@H](OC)c1ccccc1Br	band 1
CC(CCN1CCc2nc(-c3ccccc3)c(-c3ccccc3)cc2C1)=NOC[C@@H](C)[C@H](OCc1ccccc1)C(C)C	band 3
CCOC(=O)CCN1C(=O)[C@H]2[C@H]3[C@H](O)[C@H](O)CC(=O)[C@H]3CC[C@H]2C1=O	band 2
CC(=O)OC[C@H]1O[C@H](CCON=C[C@@H](C)[C@H](OCc2ccccc2)C(C)C)C=C[C@@H]1OC(C)=O	band 1
COC(=O)[C@@]1(Cc2ccc(F)cc2)[C@H]2c3cc(C(=O)N(C)C)n(Cc4ccc(OC)c(OC)c4)c3C[C@H]2CN1C(=O)c1ccccc1	band 2
CCOC(=O)C1=CCC(c2cc3ccccc3[nH]2)NC1 (stereo not drawn)	band 2
COC(=O)[C@@]1(Cc2ccc(F)cc2)[C@@H]2C(=CC(=O)[C@H]2CC(=O)C(=O)N(C)C)CN1C(=O)c1ccccc1	band 3
CCOC(=O)[C@H](Cc1ccccc1)NC(=O)CCC1CC(OC(=O)NCc2ccc3c(c2)OCO3)CC2(CCCC(COC(=O)NCC3CCCCC3)O2)O1 (stereo partly drawn)	band 1
CC[C@@H](c1ccccc1)n1c(=O)n2n(c1=O)[C@H]1[C@H](O)[C@@H]3O[C@@H]3C(=NOCC(C)C)[C@H]1CC2	band 1
COc1cccc([C@H]2Oc3ccc(OC)cc3C(=NO[C@H](C)c3cn([C@@H]4COC[C@H]4O)nn3)[C@@H]2O)c1	band 2
CCCNC(=O)[C@@H]1c2ccccc2C(=O)N(c2ccc(C)cn2)[C@H]1c1ccc(CO)cc1	band 2

====

# composite z-score annotations
Assay: anti-His antibody binders, primary screen, artefact control for SMM control protein annotation, biochemical, small-molecule microarray, 635 nm fluorescence (AID 1128);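 also: score merges feature fluorescence with signal-to-noise for each printed compound spot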
Conditions: anti-His Alexa647 antibody binding, higher = more signal
Observation type: composite z-score

Compound	Recorded measurement
Cc1ccc(F)cc1S(=O)(=O)N[C@@H]1CCN(Cc2ccc(CC(C)C)cc2)C1	-0.016
CC(C)(C)N1CC=CC23O[C@@H]4C=CCCOC(=O)C4[C@H]2C(=O)N(CCCCCO)[C@@H]3C1=O (stereo partly drawn)	0.373
COc1ccc(COC(=O)NN=C2C[C@@H](O)[C@@H](O)[C@@H]3[C@@H]4C(=O)N(c5ccc(F)cc5F)C(=O)[C@@H]4CC[C@@H]23)cc1	0.257

====

# z-score annotations
Assay: cell viability in Huh7 cells, primary screen, cytotoxicity control for HCV replication inhibitor project, CellTiter-Glo luminescence, basal, 48 h (AID 1143);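 also: Huh7 hepatoma cells carrying a hepatitis C replication reporter with no stimulus; test concentration not given here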
Conditions: Huh7 HCV replicon, higher = more signal, called active from +8 up or from −8 down

Compound	z-score
N#Cc1ccc(NN2C(C(O)c3cc(C(F)(F)F)cc(C(F)(F)F)c3)C=CC3C(=O)N(c4ccccc4)C(=O)C32)cc1 (centres undefined)	-2.24
O=C1C[C@@H](O)[C@@H](O)[C@@H]2[C@@H]3C(=O)N(c4cccc(Oc5ccccc5)c4)C(=O)[C@@H]3CC[C@@H]12	-0.146
[N-]=[N+]=NCc1ccccc1C[C@]1(C(=O)NCc2ccccc2)N=C(c2ccc(OCCCO)cc2)O[C@H]1c1ccccc1N=[N+]=[N-]	-4.38
CCN1C(=O)[C@H]2[C@H]3[C@H](O)[C@H](O)CC(=NOC[C@@H](C)[C@H](OCc4ccccc4)C(C)C)[C@@H]3CC[C@H]2C1=O	-0.994
C=CC[C@@H]1C=C[C@H](ON=C2c3cc(OC)ccc3O[C@H](c3cccc(OC)c3)[C@H]2O)[C@@H](CO)O1	-0.375
CC[C@@H](c1ccccc1)n1c(=O)n2n(c1=O)[C@H]1[C@H](O)[C@@H]3O[C@@H]3C(=NOCC=C(C)CCC=C(C)C)[C@H]1CC2	-1.53
O=C1[C@H]2[C@H]3[C@H](O)[C@H](O)CC(=NO[C@@H]4O[C@H](CO)[C@@H](O)[C@H](O)[C@H]4O)[C@@H]3CC[C@H]2C(=O)N1Cc1ccccc1	-0.435
O=C1[C@H]2[C@H]3[C@H](O)[C@H](O)CC(=NOCc4ccccc4)[C@H]3CC[C@H]2C(=O)N1C[C@@H]1CCCO1	-0.34
C=C(COC)/C(=C/C[C@H](OC(=O)c1ccncc1)c1ccc(CO)o1)c1cc(C(=O)OC)ccc1OC	-0.0528

====

Biological target: Epidermal growth factor receptor (Homo sapiens)
Assay: EGFR binders on small-molecule microarrays, primary screen, biochemical, small-molecule microarray, 635 nm fluorescence (AID 1104);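 also: score merges 667 nm emission intensity with spot signal to noise over triplicate slides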
Conditions: EGFR binding, higher = more signal

Compound	composite z-score
O=C1C[C@@H](O)[C@@H](O)[C@@H]2[C@@H]3C(=O)N(Cc4ccc5c(c4)OCO5)C(=O)[C@@H]3CC[C@@H]12	0.428
COC(=O)CC1OC1[C@H](C)[C@@H](OC)C(C)C (stereo partly specified)	0.335
CCCNC(=O)OC[C@H]1O[C@H](CCON=C2[C@H]3CCn4c(=O)n(-c5ccccc5)c(=O)n4[C@H]3[C@H](O)[C@@H]3O[C@H]23)C=C[C@@H]1Oc1ccc(OC)cc1	-0.0629
O=C1c2ccccc2[C@@]2(Cc3ccccc3N(C3CC3)C2=O)[C@H](c2ccc(CO)cc2)N1Cc1ccccc1C(F)(F)F	-0.942
CN(C)CCCNC(=O)[C@@H]1c2ccccc2C(=O)N(Cc2cc(F)cc(C(F)(F)F)c2)[C@H]1c1ccc(CO)cc1	0.368
C=CCOC(=O)[C@H]1[C@@H]2C(=O)O[C@@H](c3ccccc3)[C@@H](c3ccccc3)N2[C@@H](c2ccc(OCCOC(=O)[C@H]3C[C@H]4C(=O)N[C@@H](Cc5ccccc5)C(=O)N4[C@H]3c3ccc(O)cc3)cc2)[C@]12C(=O)Nc1ccccc12	0.892
CO[C@@H]1COC(=O)CCC[C@@H](C)[C@H](OC)COC(=O)[C@H](Cc2ccccc2)NC(=O)CC=C[C@H]1C	0.231
CCOC(=O)NN=C1C[C@@H](O)[C@@H](O)[C@@H]2[C@@H]3C(=O)N(C[C@@H]4CCCO4)C(=O)[C@@H]3CC[C@@H]12	0.364
C[C@@H](c1ccccc1)N1C(=O)[C@H]2[C@H]3[C@H](O)C=CC(=O)[C@@H]3CC[C@H]2C1=O	0.54
O=C1C[C@@H](O)[C@@H](O)[C@@H]2[C@@H]3C(=O)N(c4cccc(Oc5ccccc5)c4)C(=O)[C@@H]3CC[C@@H]12	0.387
NC(=O)NCC#Cc1ccc2c(c1)[C@]1(C(=O)N2)[C@H](c2ccc(O)cc2)N2[C@H](c3ccccc3)[C@H](c3ccccc3)OC(=O)[C@H]2[C@@H]1C(=O)N1CCCCCCC1	0.356

====

# z-score annotations
Test: RPMI8226 myeloma cell viability, profiling panel, resazurin fluorescence, basal, 24 h, PK04 Diversity Set (AID 1180);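 also: RPMI8826 multiple myeloma cell line at 5000 cells per well; test concentration not given here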
Conditions: higher = more signal

Input smiles	z-score
CN(C)C(=O)[C@@]1(Cc2ccccc2)N=C(c2ccc(OCCCO)cc2)O[C@H]1c1ccccc1CN=[N+]=[N-]	-1.23
CC(CCC(=O)OC[C@H]1O[C@H](C#Cc2ccccc2)C=C[C@@H]1Oc1ccc(C)cc1)=NOC[C@@H](O)[C@H]1O[C@@H]2OC(C)(C)O[C@@H]2[C@H]1O	0.0234
CC(C)CN1CCc2nc(-c3ccccc3)c3c(c2CC1)CO[C@@H](C)C3	0.711

====

Experiment: splicing luciferase reporter signal modulators, primary screen, spliceosome inhibition project, cell-based, HEK293, splice +/- reporter (AID 1101);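 also: HEK293 cells carrying a splicing-competent luciferase reporter gene; test concentration not given here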
Conditions: luminescence, 24 h, higher = more signal, called active from +8 up or from −8 down
Observation type: z-score

Molecule	Observation type	Recorded measurement
CC(C)(C)OC(=O)CC[C@]1(C(N)=O)COC(c2ccc(OCCCO)cc2)=N1	z-score	-0.337
COCC1=C2[C@@H](CCc3ccccc3)OB(O)C[C@@H]2n2c(=O)n(-c3ccccc3)c(=O)n2C1	z-score	0.184
COC(=O)CC=C[C@@H](C)[C@H](OC)c1ccccc1Br	z-score	-0.0767
O[C@@H](Cc1ccccc1)[C@H]1C2C=CCCC(c3ccccc3)=C2CN1Cc1cccc(Cl)c1 (stereo partly drawn)	z-score	-0.205
CCCCCN1CC=CC23O[C@@H]4C=CCOC(=O)[C@@H]4[C@H]2C(=O)N(CCCCCCO)[C@@H]3C1=O (stereo partly drawn)	z-score	-0.0127
CCOC(=O)CCN1C(=O)[C@H]2[C@H]3[C@H](O)[C@H](O)CC(=NOCc4ccccc4)[C@@H]3CC[C@H]2C1=O	z-score	0.0671
COC(=O)C1=C(C)N(Cc2ccccc2)[C@]23O[C@](C(=O)OC)(C(=O)N2[C@@H]1c1ccccc1)[C@H]1CCOC(=O)[C@H]13	z-score	-0.236
CCc1cc2c(nc1CC)CCN(CCC(C)=NOC[C@@H](O)COCc1ccco1)C2	z-score	-0.0287
CC(=O)OC[C@H]1O[C@H](CCON=C(C)CCC(=O)OC[C@H]2O[C@H](C#Cc3ccccc3)C=C[C@@H]2Oc2ccc(C)cc2)C=C[C@@H]1OC(C)=O	z-score	-0.35
C/C=C\[C@@H](NCc1ccccc1Br)[C@@H](O)Cc1ccccc1	z-score	-0.307
CN(C)CCCNC(=O)[C@@H]1c2ccccc2C(=O)N(Cc2cc(F)cc(C(F)(F)F)c2)[C@H]1c1ccc(CO)cc1	z-score	-1
O=C(CS)NCCCCCNC(=O)[C@@H]1C[C@@H]2C(=O)N[C@@H](Cc3ccccc3)C(=O)N2[C@@H]1c1ccc(O)cc1	z-score	0.339
O=C1C2=CC[C@H]3C(=O)N(Cc4ccc5c(c4)OCO5)C(=O)[C@H]3[C@H]2[C@H](O)[C@@H]2O[C@H]12	z-score	0.867
